target.of.assay: Estrogen receptor (Homo sapiens)
test: ERalpha ligand binders by competition, primary screen, cell-based, Cos7 ERalpha-GFP, flow cytometry (AID 1211);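 further: 0% = DMSO vehicle wells and 100% = no E2-Alexa633 signal left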
cond: fluorescent ligand competition, at 10 µM
Active and inactive are the calls of the source. How the calls were made is not given here.
Return exactly one item of active, inactive

Known results for molecules:
In [3]: df
Out[3]:
                                   molecule                   target_of_assay  class_label
0  CCCNC(=O)c1ccc2c(c1)C1C3CCC(C3)C1C(c1ccccc1)N2 (configuration not stated)  Estrogen receptor (Homo sapiens)       active
1  Cc1ccc2[nH]c(=O)c(-c3nc4ccccn4c3NCc3ccco3)cc2c1  Estrogen receptor (Homo sapiens)     inactive
2  COc1ccc(C2Nc3ccccc3C(=O)N2c2ccc(Cl)cc2)cc1Cn1cc([N+](=O)[O-])cn1 (configuration not stated)  Estrogen receptor (Homo sapiens)     inactive
3   Nc1ccc(-n2cnc3cc([N+](=O)[O-])ccc32)cc1  Estrogen receptor (Homo sapiens)       active
4     NNc1nc2sc3c(c2c(=O)[nH]1)CCc1ccccc1-3  Estrogen receptor (Homo sapiens)     inactive

## Task What classification did Cn1c(SCC(=O)Nc2sccc2C#N)nnc1-c1ccccc1 end up with in this test?
## Result inactive

## Task Request: Nc1ccc(-c2nc3ccc([N+](=O)[O-])cc3[nH]2)cc1
## Result active

## Task What would you report for CCOC(=O)N1CCN(S(=O)(=O)c2ccc(C(=O)Nc3nc4ccc(F)cc4s3)cc2)CC1 ?
## Result inactive

## Task Please answer likewise for Cc1ccn2c(NCc3ccc4c(c3)OCO4)c(-c3ccc(O)cc3)nc2c1
## Result inactive

## Task Moving on to the next molecule: CC(C)C1Nc2ccc(S(N)(=O)=O)cc2C2C=CCC21 (configuration not stated)
## Result active

###

target.of.assay: Estrogen receptor (Homo sapiens) (UniProt P03372)
Sequence (P03372 whole entry, looked up): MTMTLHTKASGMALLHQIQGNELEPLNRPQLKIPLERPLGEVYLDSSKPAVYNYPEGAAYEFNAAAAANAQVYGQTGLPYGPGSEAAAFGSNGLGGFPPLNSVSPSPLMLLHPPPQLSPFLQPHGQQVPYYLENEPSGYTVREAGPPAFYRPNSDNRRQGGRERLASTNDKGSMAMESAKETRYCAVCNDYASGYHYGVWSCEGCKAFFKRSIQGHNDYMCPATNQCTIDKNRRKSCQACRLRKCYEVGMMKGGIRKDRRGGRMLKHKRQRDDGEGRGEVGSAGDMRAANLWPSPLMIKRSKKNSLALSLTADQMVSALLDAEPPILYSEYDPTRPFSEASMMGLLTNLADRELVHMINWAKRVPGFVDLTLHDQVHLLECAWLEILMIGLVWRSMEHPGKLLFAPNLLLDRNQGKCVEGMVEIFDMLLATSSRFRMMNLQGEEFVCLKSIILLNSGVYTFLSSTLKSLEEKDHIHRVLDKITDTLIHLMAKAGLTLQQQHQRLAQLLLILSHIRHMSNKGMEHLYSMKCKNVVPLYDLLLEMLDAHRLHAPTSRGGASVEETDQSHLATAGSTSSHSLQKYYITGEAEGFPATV
test: ERalpha ligand binders by competition, primary screen, cell-based, Cos7 ERalpha-GFP, flow cytometry (AID 1211);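 further: 0% = DMSO vehicle wells and 100% = no E2-Alexa633 signal left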
cond: fluorescent ligand competition, at 10 µM, hits give high values
Active and inactive are the calls of the source. No rule for the calls is given here.
The entries below are paired with their reported inhibition of ligand binding.

## Task inhibition of ligand binding for Clc1ccc2nc(-c3ccccn3)c(Nc3ccc4c(c3)OCO4)n2c1 ?
## Result 42% (inactive)

## Task // same read-out, input: CCCC1=NN2C(=N)/C(=C\c3ccc(SCc4ccco4)o3)C(=O)N=C2S1
## Result 14% (inactive)

## Task Also Cc1ccc(C)c(/C(O)=C2/C(=O)C(=O)N(CCN3CCOCC3)C2c2ccco2)c1 (stereo unspecified) ?
## Result 0% (inactive)

## Task Ok, now Brc1cc2c(cc1C1Nc3ccccc3C3C=CCC31)OCO2 (stereo unspecified)
## Result 0% (inactive)

## Task What about N#CC1=C(N)OC2=C(CCC/C2=C/c2ccoc2)C1c1ccoc1 (stereo unspecified) ?
## Result 56% (inactive)

## Task Also need Cc1ccccc1-n1nc(-c2ccc(N)cc2)cc1N , thanks.
## Result 7% (inactive)

###

target.of.assay: Estrogen receptor (Homo sapiens)
test: ERalpha ligand binders by competition, primary screen, cell-based, Cos7 ERalpha-GFP, flow cytometry (AID 1211);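 further: 0% = DMSO vehicle wells and 100% = no E2-Alexa633 signal left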
cond: fluorescent ligand competition, at 10 µM
Activity calls are given as the source filed them. No rule for the calls is given here.
Choose one outcome from this list and give only that: active, inactive

Example entries and their recorded answers appear below.
>>> print(df.to_string())
                                   compound                   target_of_assay  class_label
0  O=C(Cc1coc2cc3c(cc12)CCC3)OCc1cc(=O)n2c(n1)sc1ccccc12  Estrogen receptor (Homo sapiens)     inactive
1       CCNC(=O)N1c2ccc(OCC)cc2C(C)=CC1(C)C  Estrogen receptor (Homo sapiens)     inactive
2           Nc1nc(-c2ccc3c(c2)NC(=O)CO3)cs1  Estrogen receptor (Homo sapiens)     inactive
3   COc1cccc2sc(Nc3nnc(-c4ccc(F)cc4)o3)nc12  Estrogen receptor (Homo sapiens)     inactive
4  CCOC(=O)c1ccc2c(c1)C1C=CCC1C(c1cccc([N+](=O)[O-])c1)N2 (stereo not given)  Estrogen receptor (Homo sapiens)     inactive
5  Cc1cc(C)c2c(c1)NC(c1cc3c(cc1Br)OCO3)C1CC=CC21 (stereo not given)  Estrogen receptor (Homo sapiens)       active
6      Cc1ccc(S(=O)(=O)Cc2ccc(C(=O)O)o2)cc1  Estrogen receptor (Homo sapiens)     inactive
7          CCCOc1cc2oc(=O)c3c(c2cc1CC)CCCC3  Estrogen receptor (Homo sapiens)     inactive
8  Nc1ccc(-c2cc(-c3cccc(N)c3)nc(-c3ccccc3)n2)cc1  Estrogen receptor (Homo sapiens)     inactive
9  O=C(Cn1nnc(-c2ccc3c(c2)OCO3)n1)NCc1ccco1  Estrogen receptor (Homo sapiens)     inactive

## Task Which outcome did this test record for the compound COc1ccc(C2Nc3ccccc3C(=O)N2c2ccccc2)cc1CSc1ccccn1 (stereo not given) ?
## Result inactive

## Task Moving on to the next compound: O=C(Cc1cccs1)Nc1ccccn1
## Result inactive

###

target.of.assay: Estrogen receptor (Homo sapiens) (UniProt P03372)
test: ERalpha ligand binders by competition, primary screen, cell-based, Cos7 ERalpha-GFP, flow cytometry (AID 1211);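 further: 0% = DMSO vehicle wells and 100% = no E2-Alexa633 signal left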
cond: fluorescent ligand competition, at 10 µM
The source made the active and inactive calls. No rule for the calls is given here.
Mark one answer only. Choices: yes (active), no (inactive)

Reference set (2 entries):
In [3]: df
Out[3]:
                                   molecule  class_label
0  CSc1nc2c(c(=O)[nH]1)C(c1cccs1)C1=C(CCCC1=O)N2 (centres undefined)           no
1       Oc1ccc(C=Nc2ccc(N3CCOCC3)cc2)c(O)c1           no

## Task Hi team, can someone confirm the assay call for Cc1cc(O)ccc1C1(c2ccc(O)cc2C)OC(=O)c2ccccc21 ?
## Result no

## Task Then this molecule: CCOc1ccc2nc(NC(=O)CCC(=O)c3cccs3)sc2c1
## Result no

###

target.of.assay: Estrogen receptor (Homo sapiens) (UniProt P03372)
test: ERalpha ligand binders by competition, primary screen, cell-based, Cos7 ERalpha-GFP, flow cytometry (AID 1211);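 further: 0% = DMSO vehicle wells and 100% = no E2-Alexa633 signal left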
cond: fluorescent ligand competition, at 10 µM, hits give high values
Would you please tag the item met when its inhibition of ligand binding is 40% or above, and not met when it is below?

## Task Could you please find out whether CC(=O)c1ccc2c(c1)C1C=CCC1C(C(=O)O)N2 (stereo unspecified) has inhibition of ligand binding that meets 40% or exceeds it?
## Result met

## Task Quick one: CC(=O)c1ccc2c(c1)C1C=CCC1C(c1cccc([N+](=O)[O-])c1)N2 (stereo unspecified)
## Result met

###

target.of.assay: Estrogen receptor (Homo sapiens) (UniProt P03372)
test: ERalpha ligand binders by competition, primary screen, cell-based, Cos7 ERalpha-GFP, flow cytometry (AID 1211);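 further: 0% = DMSO vehicle wells and 100% = no E2-Alexa633 signal left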
cond: fluorescent ligand competition, at 10 µM, hits give high values
Lab note: anything with inhibition of ligand binding at or over 20% counts as 1; the rest go in 0.

# example entries with known answers
>>> df
                                   molecule                           target_of_assay  class_label
0       Oc1c(Cl)cc(Cl)cc1Sc1cc(Cl)cc(Cl)c1O  Estrogen receptor (Homo sapiens) (UniProt P03372)            1
1           Nc1nc2c(s1)CCc1c-2cnn1-c1ccccc1  Estrogen receptor (Homo sapiens) (UniProt P03372)            0
2      O=c1cc(-c2ccccc2Cl)oc2c(Br)ccc(O)c12  Estrogen receptor (Homo sapiens) (UniProt P03372)            1
3  COc1ccc2c(c1)c1c3n2CCNC3CCC1 (stereo unspecified)  Estrogen receptor (Homo sapiens) (UniProt P03372)            1
4  Cc1cnc(C(=O)OCC(=O)c2csc(N3CCCCC3)n2)cn1  Estrogen receptor (Homo sapiens) (UniProt P03372)            0
5   O=C(Cc1ccccc1)Nc1ccc2oc(-c3cccnc3)nc2c1  Estrogen receptor (Homo sapiens) (UniProt P03372)            1
6  Cc1ccc(S(=O)(=O)Cc2ccc(C(=O)N3CCN(Cc4ccccc4)CC3)o2)cc1  Estrogen receptor (Homo sapiens) (UniProt P03372)            1
7      Cc1nn(-c2ccccc2)c(C)c1NC(=O)Cc1cccs1  Estrogen receptor (Homo sapiens) (UniProt P03372)            0
8  Cc1ccsc1/C=C(\C(=O)c1ccc(OC(C)C)cc1)c1nc2ccccc2o1  Estrogen receptor (Homo sapiens) (UniProt P03372)            0
9  Cc1ccc(Cn2c(NC(=O)c3ccco3)nc3ccccc32)cc1  Estrogen receptor (Homo sapiens) (UniProt P03372)            1

--- query ---
## Task Is it the case that CC(=O)OC1CC2(C)C(=O)CCC2C2CCc3cc(O)ccc3C12 (stereo unspecified) has inhibition of ligand binding reaching or exceeding 20%?
## Result 1
